Target: G5N N13A (Homo sapiens, UniProt Q8TEQ6 1-726, N13A)
Sequence (Q8TEQ6 1-726 N13A): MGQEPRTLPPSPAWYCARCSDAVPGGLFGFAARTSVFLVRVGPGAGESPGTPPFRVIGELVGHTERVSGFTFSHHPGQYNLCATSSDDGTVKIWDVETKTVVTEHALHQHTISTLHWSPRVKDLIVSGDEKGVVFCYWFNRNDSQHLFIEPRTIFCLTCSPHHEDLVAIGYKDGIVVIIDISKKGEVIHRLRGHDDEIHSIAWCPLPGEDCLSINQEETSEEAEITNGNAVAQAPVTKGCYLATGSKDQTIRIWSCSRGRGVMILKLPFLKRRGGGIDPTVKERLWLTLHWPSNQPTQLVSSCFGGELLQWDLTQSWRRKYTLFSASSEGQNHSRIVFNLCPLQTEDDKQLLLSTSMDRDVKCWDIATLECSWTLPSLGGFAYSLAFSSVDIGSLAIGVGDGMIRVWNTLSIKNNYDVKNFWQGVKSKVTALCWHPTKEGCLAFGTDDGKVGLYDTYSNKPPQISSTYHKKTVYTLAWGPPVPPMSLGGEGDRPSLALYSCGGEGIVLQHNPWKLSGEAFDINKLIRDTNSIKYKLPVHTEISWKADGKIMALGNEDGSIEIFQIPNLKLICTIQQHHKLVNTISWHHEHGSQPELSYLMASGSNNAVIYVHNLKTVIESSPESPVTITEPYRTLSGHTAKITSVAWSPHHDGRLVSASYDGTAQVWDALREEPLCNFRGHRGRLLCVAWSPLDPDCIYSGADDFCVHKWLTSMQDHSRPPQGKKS
Test: FP
ATTRIBUTE MEASURED: pKd
Answers are plain numbers, as −log10 of the molar value.

Name the recorded pKd for GCAAUUUUUGACA (ssRNA) [U4 13-mer, FITC] .
5.85
